Molecular target: Muscarinic acetylcholine receptor M5 (Homo sapiens) (UniProt P08912)
Sequence (P08912 whole entry): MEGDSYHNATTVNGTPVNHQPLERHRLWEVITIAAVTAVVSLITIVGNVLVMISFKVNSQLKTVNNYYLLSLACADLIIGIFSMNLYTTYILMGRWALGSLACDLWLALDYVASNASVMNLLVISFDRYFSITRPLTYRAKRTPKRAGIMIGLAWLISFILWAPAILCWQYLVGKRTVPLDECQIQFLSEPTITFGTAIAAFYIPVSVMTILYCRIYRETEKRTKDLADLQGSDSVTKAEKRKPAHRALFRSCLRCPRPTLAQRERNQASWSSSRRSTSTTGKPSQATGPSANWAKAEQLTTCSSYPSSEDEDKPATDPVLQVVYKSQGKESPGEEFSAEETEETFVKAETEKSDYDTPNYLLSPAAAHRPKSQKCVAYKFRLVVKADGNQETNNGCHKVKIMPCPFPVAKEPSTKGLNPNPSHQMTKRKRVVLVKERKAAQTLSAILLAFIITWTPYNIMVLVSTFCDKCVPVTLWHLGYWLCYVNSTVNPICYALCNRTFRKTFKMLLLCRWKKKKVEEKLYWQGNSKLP
Experiment: Cooperativity with NMS at Muscarinic acetylcholine receptor M5
measured attribute: Cooperativity

Data request, read-out Cooperativity, for C=CC[N+]12CC[C@@]34c5cc(OC)c(OC)cc5N5C(=O)C[C@@H]6OCC=C(C1)[C@H](C[C@@H]32)[C@@H]6[C@H]54 (some centres not stated)
1.19

// query Cooperativity value for entry COc1cc2c(cc1OC)[C@@]13CC[N+]4(N)CC5=CCO[C@H]6CC(=O)N2[C@H]1[C@H]6[C@H]5C[C@@H]34 (some centres not stated)
0.8

State the recorded Cooperativity for this entry: COc1cc2c(cc1OC)[C@@]13CC[N+]4(C)CC5=CCO[C@H]6CC(=O)N2[C@H]1[C@H]6[C@H]5C[C@@H]34 (some centres not stated)
0.8

Using the record for COc1cc2c(cc1OC)[C@@]13CC[N+]4(Cc5ccccc5)CC5=CCO[C@H]6CC(=O)N2[C@H]1[C@H]6[C@H]5C[C@@H]34 (some centres not stated) , report its Cooperativity.
1.19

Name the recorded Cooperativity for COc1cc2c(cc1OC)[C@@]13CCN4CC5=CCO[C@H]6CC(=O)N2[C@H]1[C@H]6[C@H]5C[C@H]43 .
< 0.2

Can you look up the measured Cooperativity of COc1cc2c(cc1OC)[C@@]13CC[N+]4([O-])CC5=CCO[C@H]6CC(=O)N2[C@H]1[C@H]6[C@H]5C[C@@H]34 (some centres not stated) for me?
2

If you can, please state the reported Cooperativity value of COc1cc2c(cc1OC)[C@@]13CC[N+]4(CCl)CC5=CCO[C@H]6CC(=O)N2[C@H]1[C@H]6[C@H]5C[C@@H]34 (some centres not stated) .
0.2
